- METHOD_DESCRIPTION: in vivo
- STATED_CONDITIONS: Balb/c nu/nu, mouse, po, pH 8
ATTRIBUTE_MEASURED: MTD (mg/kg)
Reply with just the number (in mg/kg).

Quick check: MTD of C/C(=C\c1csc(CN)n1)[C@@H]1C[C@@H]2O[C@]2(C)CCC[C@H](C)[C@H](O)[C@@H](C)C(=O)C(C)(C)[C@@H](O)CC(=O)O1 (relative stereo) [BMS-310705] ? 90

---

- METHOD_DESCRIPTION: In vivo antitumor testing, Pat-26 xenograft
- STATED_CONDITIONS: Balb/c nu/nu, mouse, in vivo, iv
ATTRIBUTE_MEASURED: MTD (mg/kg)
Reply with just the number (in mg/kg).

Quick check: MTD of C/C(=C\c1csc(CN)n1)[C@@H]1C[C@@H]2O[C@]2(C)CCC[C@H](C)[C@H](O)[C@@H](C)C(=O)C(C)(C)[C@@H](O)CC(=O)O1 (relative stereo) ? 10

---

- METHOD_DESCRIPTION: In vivo antitumor testing, HCT116/VM46 xenograft
- STATED_CONDITIONS: Balb/c nu/nu, mouse, in vivo, iv
ATTRIBUTE_MEASURED: MTD (mg/kg)
Reply with just the number (in mg/kg).

Quick check: MTD of C/C(=C\c1csc(CN)n1)[C@@H]1C[C@@H]2O[C@]2(C)CCC[C@H](C)[C@H](O)[C@@H](C)C(=O)C(C)(C)[C@@H](O)CC(=O)O1 (relative stereo) [BMS-310705] ? 7.5

---

- METHOD_DESCRIPTION: in vivo
- STATED_CONDITIONS: Balb/c nu/nu, mouse, iv
ATTRIBUTE_MEASURED: MTD
Dear colleague, please send the value followed by its unit.

Quick check: MTD of C/C(=C\c1csc(CN)n1)[C@@H]1C[C@@H]2O[C@]2(C)CCC[C@H](C)[C@H](O)[C@@H](C)C(=O)C(C)(C)[C@@H](O)CC(=O)O1 (relative stereo) ? 8 mg/kg
